test: amyloid nucleation score (Sup35N fusion, yeast selection) (log enrichment); library NNK1; higher = more nucleation; inactive = no reads after selection;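 also: zero at mode of non-aggregating sequences after 7 days selection at 30°C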

MONOMER SEQUENCE: FKEDITFADGISDWSCQYTM
amyloid nucleation score: inactive
--
MONOMER SEQUENCE: HLWSFAEMLNNHAVEDCVCT
amyloid nucleation score: inactive
--
MONOMER SEQUENCE: RCMNWVKCDRNPCVMLSIGT
amyloid nucleation score: inactive

* * *

assay: amyloid nucleation score (Sup35N fusion, yeast selection) (log enrichment); library NNK1; higher = more nucleation; inactive = no reads after selection

SUBSTANCE: YYRGCHLYSHHPLRGLLGGV
amyloid nucleation score: inactive
//
SUBSTANCE: TVLSRVFWQRDGFVIAQSDG
amyloid nucleation score: inactive
//
SUBSTANCE: AYSVRICLDFGKNG
amyloid nucleation score: inactive
//
SUBSTANCE: LSYCVIG
amyloid nucleation score: inactive

* * *

In this section, each of the sequences is paired with its reported amyloid nucleation score.
experiment: amyloid nucleation score (Sup35N fusion, yeast selection) (log enrichment); library NNK2; higher = more nucleation; inactive = no reads after selection
REPORTED PROPERTY: amyloid nucleation score

MONOMER SEQUENCE: LWVGQLTTY
REPORTED PROPERTY: amyloid nucleation score
TEST RESULT: 0.199
--
MONOMER SEQUENCE: TLWVDRVREMC
REPORTED PROPERTY: amyloid nucleation score
TEST RESULT: -0.809

* * *

test: amyloid nucleation score (Sup35N fusion, yeast selection) (log enrichment); library NNK1; higher = more nucleation; inactive = no reads after selection

MONOMER SEQUENCE: DIGHFHGTDMGCNIF
amyloid nucleation score: inactive

MONOMER SEQUENCE: SIFIAGWGCISYKRRVACFR
amyloid nucleation score: inactive

MONOMER SEQUENCE: FWSHHPHTNENMCTYTNLSW
amyloid nucleation score: inactive

* * *

assay: amyloid nucleation score (Sup35N fusion, yeast selection) (log enrichment); library NNK3; higher = more nucleation; inactive = no reads after selection

SUBSTANCE: NFTSRSAVLVR
amyloid nucleation score: 2.21

SUBSTANCE: AVWNFTQFYAENEGHNVSLS
amyloid nucleation score: inactive

SUBSTANCE: SARYWESDRLALIRCHLELR
amyloid nucleation score: inactive

SUBSTANCE: ADVCNAFRVISICLYAIIVL
amyloid nucleation score: inactive

SUBSTANCE: RERIFRICVFRMTSDKMTAT
amyloid nucleation score: inactive

SUBSTANCE: RSLTLKLTGGVLALMRS
amyloid nucleation score: inactive

SUBSTANCE: VSLLMRASGSCLNMQVYSGF
amyloid nucleation score: 1.57

SUBSTANCE: RYTVSGTLSAYF
amyloid nucleation score: -0.112

SUBSTANCE: SHSVYIFFVSTFVGSLWSLP
amyloid nucleation score: inactive

SUBSTANCE: VIYISCFTVLLVFLVNTPLR
amyloid nucleation score: 1.2

SUBSTANCE: QPMKLRT
amyloid nucleation score: inactive

SUBSTANCE: SKFFLPQTEFPQKGLTPITA
amyloid nucleation score: inactive

SUBSTANCE: NLQNGDYITVWTEWEQEACR
amyloid nucleation score: inactive

SUBSTANCE: KRYLGLMQRDVWISDAKLSA
amyloid nucleation score: inactive

SUBSTANCE: MLELLTFTDFLGTTDITRNS
amyloid nucleation score: -0.113

SUBSTANCE: PDRCFD
amyloid nucleation score: inactive

SUBSTANCE: AFKNYVPMFTW
amyloid nucleation score: -0.335

SUBSTANCE: LNALLGQYSDISMRISLNVS
amyloid nucleation score: inactive

SUBSTANCE: WYCVAEYGHFKCPSRKYVFG
amyloid nucleation score: inactive

* * *

assay: amyloid nucleation score (Sup35N fusion, yeast selection) (log enrichment); library NNK2; higher = more nucleation; inactive = no reads after selection
REPORTED PROPERTY: amyloid nucleation score

SUBSTANCE: TFRDYQYMYFRSRNII
REPORTED PROPERTY: amyloid nucleation score
TEST RESULT: 0.034
//
SUBSTANCE: CKLISFIRYPPPAYVVSRER
REPORTED PROPERTY: amyloid nucleation score
TEST RESULT: 2.33
//
SUBSTANCE: TGQSHFSWQYLRTAAVYSRR
REPORTED PROPERTY: amyloid nucleation score
TEST RESULT: 0.569
//
SUBSTANCE: NRTGEYLYRRWVQSGSGGKG
REPORTED PROPERTY: amyloid nucleation score
TEST RESULT: 0.553
//
SUBSTANCE: MWPHRFM
REPORTED PROPERTY: amyloid nucleation score
TEST RESULT: 0.72
//
SUBSTANCE: HLLIRGVMSTKNRCSLLVIG
REPORTED PROPERTY: amyloid nucleation score
TEST RESULT: -0.582
//
SUBSTANCE: TLSSYLVALNQRGAGSLWYV
REPORTED PROPERTY: amyloid nucleation score
TEST RESULT: 0.825
//
SUBSTANCE: TTVDSNIRAYIFKVARYHYK
REPORTED PROPERTY: amyloid nucleation score
TEST RESULT: -0.488
//
SUBSTANCE: SEYVCSCYFSGLLNKLRLVE
REPORTED PROPERTY: amyloid nucleation score
TEST RESULT: 0.356
//
SUBSTANCE: ISLSHWGQTIPLRSFLLNRL
REPORTED PROPERTY: amyloid nucleation score
TEST RESULT: 0.432
//
SUBSTANCE: KFACCRYVGVYYKTTYSILR
REPORTED PROPERTY: amyloid nucleation score
TEST RESULT: -1.17
//
SUBSTANCE: ESMLSEFFWDHS
REPORTED PROPERTY: amyloid nucleation score
TEST RESULT: 3.07
//
SUBSTANCE: TVIFVCHFTKVDCVSNTQSY
REPORTED PROPERTY: amyloid nucleation score
TEST RESULT: 3.42
//
SUBSTANCE: MIQHEKQMWWADNSYP
REPORTED PROPERTY: amyloid nucleation score
TEST RESULT: 0.483
//
SUBSTANCE: WWLYAL
REPORTED PROPERTY: amyloid nucleation score
TEST RESULT: 3.74
//
SUBSTANCE: FGKPGPRFLSSPGFSYP
REPORTED PROPERTY: amyloid nucleation score
TEST RESULT: 0.382
//
SUBSTANCE: RVNCSFTDFVDVVIWKGRGN
REPORTED PROPERTY: amyloid nucleation score
TEST RESULT: 5.07
//
SUBSTANCE: AKLRHWDCHFTR
REPORTED PROPERTY: amyloid nucleation score
TEST RESULT: 0.405
//
SUBSTANCE: QCVQRHALRVG
REPORTED PROPERTY: amyloid nucleation score
TEST RESULT: 4.31
//
SUBSTANCE: RNSIYMVTYIMVLDRIA
REPORTED PROPERTY: amyloid nucleation score
TEST RESULT: 6.13
//
SUBSTANCE: WTYDVQGREVCYVKPYLAMW
REPORTED PROPERTY: amyloid nucleation score
TEST RESULT: 1.07
//
SUBSTANCE: LRKWILLLRDYDSLYFCLVA
REPORTED PROPERTY: amyloid nucleation score
TEST RESULT: -0.996
//
SUBSTANCE: VYCRNVELIGAYGIFAGSHI
REPORTED PROPERTY: amyloid nucleation score
TEST RESULT: -0.187
//
SUBSTANCE: IYRDPHNYCM
REPORTED PROPERTY: amyloid nucleation score
TEST RESULT: -0.751
//
SUBSTANCE: FWSVEMMRHTSSFIFAEWNK
REPORTED PROPERTY: amyloid nucleation score
TEST RESULT: -0.033
//
SUBSTANCE: KVSVTMHLAKMDFCRLWG
REPORTED PROPERTY: amyloid nucleation score
TEST RESULT: 7.11
//
SUBSTANCE: FTGIRRGLWLS
REPORTED PROPERTY: amyloid nucleation score
TEST RESULT: 0.405
//
SUBSTANCE: KLHQNSKGCPGVLPVDGLKM
REPORTED PROPERTY: amyloid nucleation score
TEST RESULT: 0.82
//
SUBSTANCE: YRLMLMS
REPORTED PROPERTY: amyloid nucleation score
TEST RESULT: 0.43
//
SUBSTANCE: GLIYIRDFSFREKGGCYQGL
REPORTED PROPERTY: amyloid nucleation score
TEST RESULT: -1.29
//
SUBSTANCE: PTSCSSRN
REPORTED PROPERTY: amyloid nucleation score
TEST RESULT: -0.055
//
SUBSTANCE: FYGRCLTFTAHPSFSRFAR
REPORTED PROPERTY: amyloid nucleation score
TEST RESULT: 0.333
//
SUBSTANCE: KVECEVWVRWVRCDGCAAGK
REPORTED PROPERTY: amyloid nucleation score
TEST RESULT: 1.22
//
SUBSTANCE: LCASHIYL
REPORTED PROPERTY: amyloid nucleation score
TEST RESULT: 0.087
//
SUBSTANCE: TVWNHVTGLDKNSRCVTQSS
REPORTED PROPERTY: amyloid nucleation score
TEST RESULT: 0.509
//
SUBSTANCE: RYLIGNSGNYVNGCVEQALR
REPORTED PROPERTY: amyloid nucleation score
TEST RESULT: -0.365
//
SUBSTANCE: MHRFRMSLVLRRGSGLVGWF
REPORTED PROPERTY: amyloid nucleation score
TEST RESULT: -0.081
//
SUBSTANCE: WCLFVLRRADTFRKGESVTC
REPORTED PROPERTY: amyloid nucleation score
TEST RESULT: 1.79
//
SUBSTANCE: SRKLRLVRGFWG
REPORTED PROPERTY: amyloid nucleation score
TEST RESULT: -0.067
//
SUBSTANCE: SKGRYAYRRMGAYLCSD
REPORTED PROPERTY: amyloid nucleation score
TEST RESULT: 1.48
//
SUBSTANCE: YGQKVMPESMKQSFNFMTEI
REPORTED PROPERTY: amyloid nucleation score
TEST RESULT: -0.573
//
SUBSTANCE: FCLLPIDQPVTGIFLVR
REPORTED PROPERTY: amyloid nucleation score
TEST RESULT: -0.158
//
SUBSTANCE: NPVMTA
REPORTED PROPERTY: amyloid nucleation score
TEST RESULT: -0.314
//
SUBSTANCE: DSGLMSFVCNVDPKCVCFVN
REPORTED PROPERTY: amyloid nucleation score
TEST RESULT: 7.97
//
SUBSTANCE: CILARWRYRRLHTSGLWASK
REPORTED PROPERTY: amyloid nucleation score
TEST RESULT: 0.9
//
SUBSTANCE: MDNTWNLCDSFYSCSGDLNT
REPORTED PROPERTY: amyloid nucleation score
TEST RESULT: -0.595
//
SUBSTANCE: ELLSRETIKDHWMTIIKYFL
REPORTED PROPERTY: amyloid nucleation score
TEST RESULT: -0.143
